measurement_target: human recombinant serotonin (5-Hydroxytryptamine) 5-HT2C receptor (Homo sapiens)
Construct: expressed in transfected cells; host or cells: CHO-K1 cells
Sequence (P28335 33-458): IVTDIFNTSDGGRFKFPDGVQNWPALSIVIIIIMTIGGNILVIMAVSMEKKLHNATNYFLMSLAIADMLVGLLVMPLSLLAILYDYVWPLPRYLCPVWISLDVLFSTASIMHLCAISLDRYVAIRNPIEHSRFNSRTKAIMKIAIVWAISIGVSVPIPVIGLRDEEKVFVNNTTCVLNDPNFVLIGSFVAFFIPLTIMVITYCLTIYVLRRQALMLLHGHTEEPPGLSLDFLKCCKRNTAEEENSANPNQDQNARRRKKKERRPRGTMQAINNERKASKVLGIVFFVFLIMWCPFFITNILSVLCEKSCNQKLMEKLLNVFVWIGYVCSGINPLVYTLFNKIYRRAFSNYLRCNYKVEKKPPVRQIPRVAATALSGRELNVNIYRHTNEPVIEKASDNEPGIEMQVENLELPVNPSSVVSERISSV
assay_overview: Serotonin 5-HT2C radioligand binding ([3H]Mesulergine)
protocol_conditions: compound at 1 μM; read-out: Serotonin (1 μM) 5-HT2C, percent inhibition of specific binding
property_name: inhibition at 1 µM (%)
Numbers only, in %.

Check out these entries, answers already filled in.
Reported human recombinant serotonin (5-Hydroxytryptamine) 5-HT2C receptor (Homo sapiens) inhibition at 1 µM for item C/C(=C\n1c2c(c3cc(Cl)ccc31)CCN(C)CC2)c1cccnc1 [Compound No. 246] was 99

Reported human recombinant serotonin (5-Hydroxytryptamine) 5-HT2C receptor (Homo sapiens) inhibition at 1 µM for item C=C(Cn1c2c(c3cc(Cl)ccc31)CCN(C)CC2)c1ccc(Cl)cc1 [Compound No. 35] was 91

Reported human recombinant serotonin (5-Hydroxytryptamine) 5-HT2C receptor (Homo sapiens) inhibition at 1 µM for item Cc1cncc(CCn2c3c(c4cc(Cl)ccc42)CCN(C)CC3)c1 [Compound No. 3] was 94

Reported human recombinant serotonin (5-Hydroxytryptamine) 5-HT2C receptor (Homo sapiens) inhibition at 1 µM for item Cc1ccc2c(c1)c1c(n2CC(=O)Nc2ccccc2)CCN(C)CC1 [Compound No. 79] was -18

Reported human recombinant serotonin (5-Hydroxytryptamine) 5-HT2C receptor (Homo sapiens) inhibition at 1 µM for item C/C(=C\n1c2c(c3cc(C)ccc31)CCN(C)CC2)c1ccncc1 [Compound No. 253] was 101

Field: inhibition at 1 µM. Fill in for each record below.
1. C/C(=C\n1c2c(c3cc(C)ccc31)CCN(C)CC2)c1ccc(Cl)cc1 [Compound No. 33]
2. COc1ccc(C(O)Cn2c3c(c4cc(C)ccc42)CCN(C)CC3)c(F)c1 (stereo not shown) [Compound No. 50]
3. C/C(=C/n1c2c(c3cc(Cl)ccc31)CCN(C)CC2)c1ccccc1F [Compound No. 242]
4. C/C(=C\n1c2c(c3cc(Cl)ccc31)CCN(C)CC2)c1ccc(Cl)cc1Cl [Compound No. 239]
5. CN1CCc2c(n(C#Cc3ccc(Cl)cc3)c3ccc(Cl)cc23)CC1 [Compound No. 282]
6. C=C(Cn1c2c(c3cc(Cl)ccc31)CCN(C)CC2)c1ccc(F)cc1 [Compound No. 82]
7. Cc1ccc2c(c1)c1c(n2CCc2ccccc2F)CCN(C)CC1 [Compound No. 63]
8. CN1CCc2c(n(C#Cc3ccc(F)cc3)c3ccc(Cl)cc23)CC1 [Compound No. 281]

[86, 95, 94, 97, 103, 98, 5, 98]

---

measurement_target: human recombinant histamine H1 receptor (Homo sapiens, UniProt P35367)
Construct: expressed in transfected cells; host or cells: CHO cells
Sequence (P35367 whole entry): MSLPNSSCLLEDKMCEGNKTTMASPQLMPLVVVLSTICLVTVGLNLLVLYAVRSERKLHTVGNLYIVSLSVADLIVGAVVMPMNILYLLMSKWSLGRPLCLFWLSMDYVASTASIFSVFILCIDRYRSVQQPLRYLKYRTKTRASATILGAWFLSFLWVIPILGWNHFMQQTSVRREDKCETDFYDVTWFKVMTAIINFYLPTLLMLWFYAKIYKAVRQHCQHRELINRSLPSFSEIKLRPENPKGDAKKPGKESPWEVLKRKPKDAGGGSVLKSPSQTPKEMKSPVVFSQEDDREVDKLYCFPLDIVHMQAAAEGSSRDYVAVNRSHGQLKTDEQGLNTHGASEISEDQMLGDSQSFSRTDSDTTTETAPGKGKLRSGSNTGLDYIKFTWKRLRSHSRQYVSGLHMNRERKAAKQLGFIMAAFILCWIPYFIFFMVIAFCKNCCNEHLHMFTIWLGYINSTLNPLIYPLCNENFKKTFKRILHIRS
assay_overview: Histamine H1 radioligand binding ([3H]Pyrilamine)
protocol_conditions: compound at 1 μM; read-out: Histamine Binding (1 μM) H1, percent inhibition of specific binding
property_name: inhibition at 1 µM (%)
Give bare numbers, in %.

Reported human recombinant histamine H1 receptor (Homo sapiens, UniProt P35367) inhibition at 1 µM for item C/C(=C\n1c2c(c3cc(C)ccc31)CCN(C)CC2)c1ccc(Cl)c(Cl)c1 [Compound No. 176] was 82

Reported human recombinant histamine H1 receptor (Homo sapiens, UniProt P35367) inhibition at 1 µM for item COc1ccc(/C(C)=C/n2c3c(c4cc(Cl)ccc42)CCN(C)CC3)cc1 [Compound No. 160] was 87

Reported human recombinant histamine H1 receptor (Homo sapiens, UniProt P35367) inhibition at 1 µM for item Cc1ccc2c(c1)c1c(n2C(=O)Cc2ccc(F)cc2)CCN(C)CC1 [Compound No. 285] was 68

Reported human recombinant histamine H1 receptor (Homo sapiens, UniProt P35367) inhibition at 1 µM for item COc1ccc(/C(C)=C/n2c3c(c4cc(C)ccc42)CCN(C)CC3)cc1F [Compound No. 179] was 45

Reported human recombinant histamine H1 receptor (Homo sapiens, UniProt P35367) inhibition at 1 µM for item COc1ccc(C#Cn2c3c(c4cc(Cl)ccc42)CCN(C)CC3)cc1F [Compound No. 283] was 12

Reported human recombinant histamine H1 receptor (Homo sapiens, UniProt P35367) inhibition at 1 µM for item Cc1ccc2c(c1)c1c(n2CC(O)c2ccc(F)cc2F)CCN(C)CC1 (stereo not shown) [Compound No. 59] was 60

Field: inhibition at 1 µM. Fill in for each record below.
1. Cc1ccc2c(c1)c1c(n2CC(=O)N2CCOCC2)CCN(C)CC1 [Compound No. 38]
2. Cc1ccc2c(c1)c1c(n2CCc2ccccn2)CCN(C)CC1 [Compound No. 9]
3. C/C(=C/n1c2c(c3cc(Cl)ccc31)CCN(C)CC2)c1cccc(F)c1 [Compound No. 249]
4. CN1CCc2c(n(CC(O)c3cccnc3)c3ccc(Cl)cc23)CC1 (stereo not shown) [Compound No. 18]

83
99
98
98

Field: inhibition at 1 µM. Fill in for each record below.
1. C/C(=C\n1c2c(c3cc(C)ccc31)CCN(C)CC2)c1cccc(F)c1 [Compound No. 252]
2. C/C(=C/n1c2c(c3cc(Cl)ccc31)CCN(C)CC2)c1ccc(Cl)cc1Cl [Compound No. 152]
3. C/C(=C\n1c2c(c3cc(C)ccc31)CCN(C)CC2)c1cccnc1 [Compound No. 247]

93
91
82

Field: inhibition at 1 µM. Fill in for each record below.
1. CN1CCc2c(n(CC(=O)N3CCCC3)c3ccc(Cl)cc23)CC1 [Compound No. 53]
2. CN1CCc2c(n(CC(=O)N3CCOCC3)c3ccc(Cl)cc23)CC1 [Compound No. 60]

1. 14
2. 2

Field: inhibition at 1 µM. Fill in for each record below.
1. Cc1ccc2c(c1)c1c(n2CC(O)c2ccc(F)cc2)CCN(C)CC1 (stereo not shown) [Compound No. 52]
2. CN1CCc2c(n(CC(O)c3ccc(Cl)cc3)c3ccc(Cl)cc23)CC1 (stereo not shown) [Compound No. 16]
3. CN1CCc2c(n(C#Cc3ccc(F)cc3)c3ccc(Cl)cc23)CC1 [Compound No. 281]
4. COc1ccc(C(O)Cn2c3c(c4cc(C)ccc42)CCN(C)CC3)cc1F (stereo not shown) [Compound No. 68]
5. COc1ccc(C(O)Cn2c3c(c4cc(Cl)ccc42)CCN(C)CC3)cc1OC (stereo not shown) [Compound No. 77]
6. Cc1ccc2c(c1)c1c(n2CC(C)(O)c2ccc(F)cc2)CCN(C)CC1 (stereo not shown) [Compound No. 14]

[96, 103, 56, 102, 97, 98]

Reported human recombinant histamine H1 receptor (Homo sapiens, UniProt P35367) inhibition at 1 µM for item CN1CCc2c(n(/C=C/c3ccccc3)c3ccc(Cl)cc23)CC1 [Compound No. 228] was 99

---

measurement_target: human recombinant adrenergic α2A receptor (Homo sapiens, UniProt P08913)
Construct: expressed in transfected cells; host or cells: insect Sf9 cells
Sequence (P08913 whole entry): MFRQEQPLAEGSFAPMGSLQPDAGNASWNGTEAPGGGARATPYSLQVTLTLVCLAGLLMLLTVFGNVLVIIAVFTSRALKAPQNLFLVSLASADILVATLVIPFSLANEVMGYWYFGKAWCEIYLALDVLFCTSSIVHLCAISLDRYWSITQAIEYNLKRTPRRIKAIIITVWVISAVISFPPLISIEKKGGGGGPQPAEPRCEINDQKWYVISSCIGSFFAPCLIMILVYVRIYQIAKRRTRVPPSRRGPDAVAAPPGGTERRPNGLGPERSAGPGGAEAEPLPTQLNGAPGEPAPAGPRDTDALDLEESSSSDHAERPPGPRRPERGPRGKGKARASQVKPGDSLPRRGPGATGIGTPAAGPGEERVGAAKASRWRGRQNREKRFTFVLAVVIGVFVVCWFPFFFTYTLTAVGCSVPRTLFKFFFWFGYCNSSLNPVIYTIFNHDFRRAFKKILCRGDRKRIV
assay_overview: Adrenergic alpha2A radioligand binding ([3H]MK-912)
protocol_conditions: compound at 1 μM; read-out: Adrenergic (1 μM) α2A, percent inhibition of specific binding
property_name: inhibition at 1 µM (%)
Give bare numbers, in %.

Check out these entries, answers already filled in.
The value of inhibition at 1 µM measured for the compound `CN1CCc2c(n(CCc3ccccc3F)c3ccccc23)CC1` turned out to be 98

The value of inhibition at 1 µM measured for the compound `Cc1ccc2c(c1)c1c(n2CCc2ccccn2)CCN(C)CC1` turned out to be 88

The value of inhibition at 1 µM measured for the compound `Cc1ccc2c(c1)c1c(n2CC(=O)N2CCCC2)CCN(C)CC1` turned out to be -9

Field: inhibition at 1 µM. Fill in for each record below.
1. CN1CCc2c(n(C#Cc3ccc(Cl)cc3)c3ccc(Cl)cc23)CC1
2. Cc1ccc2c(c1)c1c(n2/C=C/c2ccccc2)CCN(C)CC1
3. Cc1ccc2c(c1)c1c(n2C(=O)Cc2ccc(F)cc2)CCN(C)CC1
4. Cc1ccc2c(c1)c1c(n2CC(=O)N2CCCCC2)CCN(C)CC1
5. Cc1ccc(C(O)Cn2c3c(c4cc(Cl)ccc42)CCN(C)CC3)cc1 (stereo not drawn)
6. CN1CCc2c(n(CCc3cncc(Cl)c3)c3ccc(Cl)cc23)CC1
7. Cc1ccc2c(c1)c1c(n2CC(=O)N2CCOCC2)CCN(C)CC1

1. 95
2. 100
3. 91
4. 39
5. 99
6. 96
7. 77

Field: inhibition at 1 µM. Fill in for each record below.
1. Cc1ccc2c(c1)c1c(n2CC(O)c2ccc(F)cc2)CCN(C)CC1 (stereo not drawn)
2. Cc1ccc2c(c1)c1c(n2CC(O)c2ccncc2)CCN(C)CC1 (stereo not drawn)
3. CN1CCc2c(n(CC(=O)Nc3ccccc3)c3ccc(Cl)cc23)CC1
4. COc1ccc(C(O)Cn2c3c(c4cc(Cl)ccc42)CCN(C)CC3)cc1OC (stereo not drawn)
5. Cc1ccc2c(c1)c1c(n2CC(=O)Nc2ccc(F)cc2)CCN(C)CC1

97
78
28
85
1
